Cited source for all entries: PubChem BioAssay AID504827

- Tested on: RSV-infected cells, CPE inhibition
- assayProcedure: inhibitors of RSV-induced cell death – synthesized compounds, set 10, dose response (AID 504827)
assayMetric: pIC50
// scale note: pIC50 = -log10(conc_M); give the bare number

Consider the worked cases shown below.
* Cc1ccc(NC(=O)[C@@H]2CCCN2S(=O)(=O)c2cccc3cccnc23)c(C)c1 | 5.68
* COc1ccc(C)c(NC(=O)[C@@H]2CCCN2S(=O)(=O)c2cccc3cccnc23)c1 | 5.34

Next molecule, pIC50 to be filled in.
Annotate the molecule `Cc1ccc(Cn2c(=O)n(Cc3ccc(C(=O)Nc4ccncc4)cc3)c(=O)c3ccccc32)cc1` with its measured pIC50.
5.00
